System: SK-MEL-2 melanoma
method_description: NCI-60 one-dose screen, 48 h
test_parameters: 10 µM unless noted
Compounds without any hit were thinned out: in the full panel of roughly 83,000, 20% have a hit. Activity calls are given as the source filed them. Rule for the calls: active = growth percent below 10; inactive = the rest.
Respond with a class label; see active, inactive

## Task Look up the recorded call for "COc1ccc2[nH]cc(-c3nc(-c4c[nH]c5ncccc45)cs3)c2c1" in this test.
## Result inactive

## Task What did this assay record as the result for "N=C(N)c1ccc(S(N)(=O)=O)cc1" ?
## Result inactive

## Task Record request — test call for "Cn1cc(-c2csc(-c3cn(C(=O)OC(C)(C)C)c4ccccc34)n2)c2cccnc21"
## Result inactive

## Task Give the logged outcome of this assay for the following compound: "O=[N+]([O-])c1ccc(N/N=C(\C(=N/Nc2ccc([N+](=O)[O-])cc2[N+](=O)[O-])c2ccccc2)c2ccccc2)c([N+](=O)[O-])c1"
## Result inactive
